# Assay Remarks: recombinant UMI read abundance after kanamycin selection (control-corrected) (log10(CPM+1)); higher = more efficient recombination; extreme values may be limits of the assay; sequences stand for … in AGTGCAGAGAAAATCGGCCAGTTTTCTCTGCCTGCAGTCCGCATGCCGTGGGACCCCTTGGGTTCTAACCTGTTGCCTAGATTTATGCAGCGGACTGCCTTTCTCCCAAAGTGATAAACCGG…AGGTTGGTTTCACT; site = the 11-nt donor
Binary call on recombinant UMI read abundance (log10): class 1 from 0.008 upward, class 0 beneath that.

For orientation, consider the following solved cases.
GCCACGCCATGGACCGGTTTTCCCGGTAATCCGTATTTGTA (site GACACGCCTTA) | class 1
TTCCAAGCATGGACCGGTTTTCCCGGTAATCCGTATTTGAG (site GTCCAAGCTCT) | class 1

Determine whether measured recombinant UMI read abundance (log10) meets or exceeds 0.008 for GGATAGACATGGACCGGTTTTCCCGGTAATCCGTATTTGCC (site GGATAAACTGG)
class 1

And for GACCTACCATGGACCGGTTTTCCCGGTAATCCGTATTTGTC (site GACCTACCTGA) ?
class 0

And for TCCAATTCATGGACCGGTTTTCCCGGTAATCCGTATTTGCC (site TCCAATTCTGT) ?
class 0

And for TAGCGTTCATGGACCGGTTTTCCCGGTAATCCGTATTTGGT (site TAGCTTTCTAC) ?
class 0

And for GGAAATCCATGGACCGGTTTTCCCGGTAATCCGTATTTGAA (site GGGAATCCTTT) ?
class 0

And for TAATGAGCATGGACCGGTTTTCCCGGTAATCCGTATTTGGA (site TAATGAGCTGC) ?
class 0

###

Let's look at some sequences and their measured recombinant UMI read abundance (log10).
# Assay Remarks: recombinant UMI read abundance after kanamycin selection (control-corrected) (log10(CPM+1)); higher = more efficient recombination; extreme values may be limits of the assay; sequences stand for … in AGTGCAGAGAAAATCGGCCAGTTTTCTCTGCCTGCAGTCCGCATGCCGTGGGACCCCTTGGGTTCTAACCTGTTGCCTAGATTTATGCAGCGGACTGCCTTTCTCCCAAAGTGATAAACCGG…AGGTTGGTTTCACT; site = the 11-nt donor
No unit in the answer, please; the number alone is enough.

Answered examples (3):
TCATACTCATGGACCGGTTTTCCCGGTAATCCGTATTTGCA (site TTATACTCTTG) | 1.2
TGGCCTGCATGGACCGGTTTTCCCGGTAATCCGTATTTGGC (site TGGCCGGCTGC) | 0
AGGTAGACATGGACCGGTTTTCCCGGTAATCCGTATTTGCA (site AGGTAGACTTG) | 2.88

Value lookup for recombinant UMI read abundance (log10); key = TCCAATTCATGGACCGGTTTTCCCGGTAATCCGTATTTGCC (site TCCAATTCTAG)
0

And for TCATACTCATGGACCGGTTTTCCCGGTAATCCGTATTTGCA (site CCATACTCTTG) ?
2.03

And for CGTTGGACATGGACCGGTTTTCCCGGTAATCCGTATTTGAG (site CGTTTGACTCT) ?
0.0464

And for CGGGGACCATGGACCGGTTTTCCCGGTAATCCGTATTTGAT (site CGGGTACCTAT) ?
0

And for ACAAGGACATGGACCGGTTTTCCCGGTAATCCGTATTTGTT (site ACAAGGACTAA) ?
2.32

And for CTGAATCCATGGACCGGTTTTCCCGGTAATCCGTATTTGTG (site CTGAATCCTCA) ?
0.684

And for TGTCACCCATGGACCGGTTTTCCCGGTAATCCGTATTTGGC (site TGTCACCCTGC) ?
0

And for AAGCACGCATGGACCGGTTTTCCCGGTAATCCGTATTTGGG (site AAGCACCCTCC) ?
0

###

Let's look at some sequences and their measured recombinant barcode read abundance (log10).
# Assay Remarks: recombinant barcode read abundance after kanamycin selection (control-corrected) (log10(CPM+1)); higher = more efficient recombination; sequences stand for … in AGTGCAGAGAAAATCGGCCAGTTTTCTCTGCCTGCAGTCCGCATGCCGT…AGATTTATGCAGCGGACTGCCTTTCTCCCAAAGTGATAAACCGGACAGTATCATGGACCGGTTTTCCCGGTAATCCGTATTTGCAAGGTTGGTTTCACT; site = the 11-nt target
No unit in the answer, please; the number alone is enough.

ATTAGTGCTTGGGTTCTAACCTGTTGCCT (site ATTAGTGCTAG) | 0.0389

Value lookup for recombinant barcode read abundance (log10); key = TACATCCCTTGGGTTCTAACCTGTTGCCT (site TACATCCCTGG)
0.0929

###

Let's look at some sequences and their measured recombinant barcode read abundance (log10).
# Assay Remarks: recombinant barcode read abundance after kanamycin selection (control-corrected) (log10(CPM+1)); higher = more efficient recombination; sequences stand for … in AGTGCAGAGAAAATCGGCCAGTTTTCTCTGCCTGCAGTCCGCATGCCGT…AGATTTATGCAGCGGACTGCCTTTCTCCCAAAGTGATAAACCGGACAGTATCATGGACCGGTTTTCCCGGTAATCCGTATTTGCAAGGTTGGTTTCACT; site = the 11-nt target
No unit in the answer, please; the number alone is enough.

Answered examples (5):
GTCGTTGCTTGGGTTCTAACCTGTTGCCT (site ATCGTTGCTAG) | 0.522
ACGGTCACTTGGGTTCTAACCTGTTGCCT (site ATGGTCACTAG) | 0.869
CTAAGGGCTTGGGTTCTAACCTGTTGCTG (site CTAAGGACTAA) | 0.314
CATGAGCCTTGGGTTCTAACCTGTTGCCT (site CATCAGCCTAG) | 0.0278
ATTTGCCCTTGGGTTCTAACCTGTTGCCT (site AATTGCCCTAG) | 0.222

Next, consider the following sequence.
Value lookup for recombinant barcode read abundance (log10); key = TGCTAGGCTTGGGTTCTAACCTGTTGCCT (site TGTCAGGCTAG)
0.0576

###

Let's look at some sequences and their measured recombinant UMI read abundance (log10).
# Assay Remarks: recombinant UMI read abundance after kanamycin selection (control-corrected) (log10(CPM+1)); higher = more efficient recombination; extreme values may be limits of the assay; sequences stand for … in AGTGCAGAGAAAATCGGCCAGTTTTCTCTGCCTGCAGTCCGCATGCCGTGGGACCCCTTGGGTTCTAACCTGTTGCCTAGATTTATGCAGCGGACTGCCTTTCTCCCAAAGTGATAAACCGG…AGGTTGGTTTCACT; site = the 11-nt donor
No unit in the answer, please; the number alone is enough.

Value lookup for recombinant UMI read abundance (log10); key = TACTTGACATGGACCGGTTTTCCCGGTAATCCGTATTTGCC (site TACTTGACTTG)
0.00491

###

Let's look at some sequences and their measured recombinant UMI read abundance (log10).
# Assay Remarks: recombinant UMI read abundance after kanamycin selection (control-corrected) (log10(CPM+1)); higher = more efficient recombination; extreme values may be limits of the assay; sequences stand for … in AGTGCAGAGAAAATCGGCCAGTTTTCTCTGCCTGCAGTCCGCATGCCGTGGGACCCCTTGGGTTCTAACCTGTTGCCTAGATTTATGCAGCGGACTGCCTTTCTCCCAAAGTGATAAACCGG…AGGTTGGTTTCACT; site = the 11-nt donor
No unit in the answer, please; the number alone is enough.

Answered examples (8):
AATGTTTCATGGACCGGTTTTCCCGGTAATCCGTATTTGAC (site AATGTGTCTGT) | 0
TAGTACCCATGGACCGGTTTTCCCGGTAATCCGTATTTGGT (site TAGTACCCTAC) | 0.271
AACCGTTCATGGACCGGTTTTCCCGGTAATCCGTATTTGAT (site AACCGTCCTAT) | 0.012
ATAGGGCCATGGACCGGTTTTCCCGGTAATCCGTATTTGAC (site ATACGGCCTGT) | 0
TAGTTTGCATGGACCGGTTTTCCCGGTAATCCGTATTTGCC (site TAGTTTGCTGG) | 0
TGGAATACATGGACCGGTTTTCCCGGTAATCCGTATTTGCA (site TTGAATACTTG) | 0.00597
CTACTCTCATGGACCGGTTTTCCCGGTAATCCGTATTTGTA (site CTCCTCTCTTA) | 1.19
AGGAATACATGGACCGGTTTTCCCGGTAATCCGTATTTGGA (site AGGAATACTTC) | 1.69

Value lookup for recombinant UMI read abundance (log10); key = GAATGGACATGGACCGGTTTTCCCGGTAATCCGTATTTGCA (site GAATGGCCTTG)
0.483

And for AAAGTATCATGGACCGGTTTTCCCGGTAATCCGTATTTGGA (site ACAGTATCTTG) ?
0

And for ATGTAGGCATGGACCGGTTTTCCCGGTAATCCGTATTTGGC (site ATGTAGGCTCC) ?
0.328

And for ACCGGATCATGGACCGGTTTTCCCGGTAATCCGTATTTGAG (site ACCGGATCTCT) ?
1.22

And for AATGTCACATGGACCGGTTTTCCCGGTAATCCGTATTTGCT (site AATGTTACTAG) ?
0.647

And for ATGAATACATGGACCGGTTTTCCCGGTAATCCGTATTTGCA (site AGGAAGACTTG) ?
0

And for CGATCCTCATGGACCGGTTTTCCCGGTAATCCGTATTTGCT (site CGATCGTCTAG) ?
0

Reference source for all entries: the supplement of paper PMC11208160
